Reported pIC50 values are given for each entry in this list.
measured_on: DNA gyrase (Escherichia coli, UniProt P0AES4+P0AES6)
procedure_details: Inhibition against DNA gyrase
Worth noting: pIC50 values are minus log10 of concentrations stated in mol/L.

[[record]]
compound = "C[C@@H](N)[C@H]1CCN(c2nc3c(cc2F)c(=O)c(C(=O)O)cn3C2CC2)C1 (racemic)"
val = 5.16


Task item: State the recorded pIC50 for this entry: C[C@@H](N)[C@@H]1CCN(c2cc3c(cc2F)c(=O)c(C(=O)O)cn3C2CC2)C1
Reply: 5.68

Task item: Same for C[C@H](N)[C@H]1CCN(c2nc3c(cc2F)c(=O)c(C(=O)O)cn3C2CC2)C1
Reply: 5.16

Task item: Same for NC1CCN(c2nc3c(cc2F)c(=O)c(C(=O)O)cn3C2CC2)C1 (configuration not stated)
Reply: 5.65
